ASSAYED TARGET: purified E. coli 50S ribosomal subunit (E. coli (endogenous in MRE600), UniProt P60723 1-201; P61175 1-110; P0ADZ0 1-100; P0A7M6 1-63; P0A7J3 1-165)
EXPERIMENT: FP
[ ]: non-standard residue; d: D form.
METRIC: pKd
Note: pKd values are expressed as the negative base-10 logarithm of concentration in M.

Lab note: {5(6)‑carboxyfluorescein}-VDKPPYLPRPRPPR[dR]IYN[dR]-NH2 [cf-Onc112 (5(6)-carboxyfluorescein-labeled Onc112, VDKPPYLPRPRPPRrIYNr-NH2)] gave pKd of 7.30
